System: P388 leukemia ip, CD2F1 mice, survival T/C
Experiment: NCI In Vivo Anticancer Drug Screen. Data for tumor model P388 Leukemia (intraperitoneal) in CD2F1 (CDF1) mice
Settings: endpoint: median survival time; dose: 8.0 mg/kg/injection; schedule: Q01DX009 (ip); vehicle: saline
Protocol: The antitumor activity of compounds was measured in mice bearing transplantable tumors. Survival or tumor size were measured and the results are expressed as the measurement made in the treated group (T) divided by the measurement made in the vehicle treated control group (C). The tumor model used in this assay is P388 Leukemia (intraperitoneal) in CD2F1 (CDF1) mice
Inconclusive results and toxic doses are left out. The calls were made as follows: active = survival T/C of 150% or more; inactive = T/C below 125% in these data.
The reply should be one of these categories: TRUE (active), FALSE (inactive)

Worked set:
compound | class
O=C(O)CCCc1ccc(N(CCCl)CCCl)cc1 | TRUE
Cc1nc(N)nc(N)c1-c1ccc(Cl)c(Cl)c1 | FALSE
COc1cccc2c1C(=O)c1c(O)c3c(c(O)c1C2=O)C[C@@](O)(C(C)O)C[C@@H]3OC1CC(N)C(O)C(C)O1 (some centres undefined) | TRUE

Now take the following compound into account.
Ask: For "CC1=CC(=O)[C@@H](O)[C@]2(C)[C@H]3[C@@H](O)[C@H](O)[C@@]4(C)OC[C@@]35[C@@H](C[C@@H]12)OC(=O)C[C@]54O" , what call appears in the results of this test?
Reply: TRUE

====

So I've got a bunch of compounds here, and I need their T/C values.
system: P388 leukemia ip, CD2F1 mice, survival T/C; test: NCI In Vivo Anticancer Drug Screen. Data for tumor model P388 Leukemia (intraperitoneal) in CD2F1 (CDF1) mice; details: endpoint: median survival time; dose: 50.0 mg/kg/injection; schedule: Q04DX003 (ip); vehicle: Klucel (hydroxypropylcellulose) (HPC); higher = longer survival
Inconclusive results and toxic doses are left out.

Observe how each entry below is paired with its result.
compound structure | T/C
COc1ccc([N+]([O-])=NC#N)cc1 | 99 % of control
O=C1C=CC2(CCCCC2)CC1 | 97 % of control
CN(C)c1nc(-c2ccccc2)cc(=O)[nH]1 | 98 % of control
Cn1c(-c2ccccc2)c2c(=O)oc3ccccc3c2c1-c1ccccc1 | 100 % of control

Alright, here's another compound for you.
Ask: T/C lookup needed for "CNC(=O)NNc1ccccc1" , thanks.
Reply: 102 % of control

====

tested on: P388 leukemia ip, CD2F1 mice, survival T/C; assay: NCI In Vivo Anticancer Drug Screen. Data for tumor model P388 Leukemia (intraperitoneal) in CD2F1 (CDF1) mice; settings: endpoint: median survival time; dose: 120.0 mg/kg/injection; schedule: Q01DX005 (ip); vehicle: saline with Tween-80; higher = longer survival
Inconclusive results and toxic doses are left out.
quantity kind: T/C

Observe how each entry below is paired with its result.
molecule | T/C
COC(=O)c1ccc(N=NN(C)CO)cc1 | 108 % of control
CSc1nnc(CCC(=O)Nc2cc(Cl)c(Cl)cc2Cl)o1 | 105 % of control
CCOC(=O)C1=C(C(=O)c2ccccc2)C(c2cccc([N+](=O)[O-])c2)C(C(=O)c2ccccc2)=C(C(=O)OCC)N1 | 104 % of control
COc1cc(/C=C/C(=O)NCCCCN=[N+]=[N-])ccc1OCc1ccccc1 | 96 % of control

Quick one: give me T/C for each item below, same order please.
1. CCCCCCNC(=O)C1C(=O)N(CCCCCC)C(=O)/C1=N\N=C(N)N (configuration not stated)
2. O=C1CSC(c2cc(F)ccc2F)N1c1nncs1 (configuration not stated)
3. O=C(Nc1ccc(Cl)c(Cl)c1)C1C(=O)C(=O)N(c2ccc(Cl)c(Cl)c2)C1=O (configuration not stated)
4. O=C1c2cc([N+](=O)[O-])ccc2-c2c(N=Cc3ccc4c(c3)OCO4)cccc21
5. O=C1NN2CCCN=C2c2ncccc21
6. COC(=O)c1cc(Nc2ccccc2)c2ncccc2c1O

Reply:
1: 109 % of control; 2: 109 % of control; 3: 100 % of control; 4: 91 % of control; 5: 103 % of control; 6: 98 % of control
